Reference source: PubChem BioAssay (NCI)

assay: NCI Yeast Anticancer Drug Screen. Data for the wt1 strain (AID 149);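 further: 0% = growth of vehicle-treated wt1 cultures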; conditions: S. cerevisiae wt1 strain (SPY 50644) growth inhibition; at 3.7 µM; active compounds read high
The panel holds about 79,000 compounds, 15% with a hit somewhere; the sample as a whole holds those more often. Active and inactive are the calls of the source. No stated cut-off is given here; in the data, active means growth inhibition above about 70%; inactive means the rest.
Overview of recorded growth inhibition for various compounds

Below: 10 compounds and their reported growth inhibition.
O=C(NNc1ccccc1)C(CCCCNS(=O)(=O)Cc1ccccc1)NS(=O)(=O)Cc1ccccc1 (stereo unspecified): 9% (inactive)
COC(=N)c1ccc(O)c(C)c1: -5% (inactive)
O=C(O)C(=Cc1ccc(-c2ccccc2)cc1)C(=O)O: 4% (inactive)
CC1=CC(=C(c2ccc(N)c(C)c2)c2ccc(N)c(C)c2)C=CC1=N: 9% (inactive)
Cc1ccc(C)c(C(=N)c2ccccc2Cc2ccccc2)c1: 10% (inactive)
CSC(=S)N/N=C/c1ccccc1: 11% (inactive)
OC(CC(O)(C(F)(F)F)C(F)(F)F)c1ccc(C(O)CC(O)(C(F)(F)F)C(F)(F)F)cc1 (stereo unspecified): 32% (inactive)
CC(C)OC(=O)NNc1cccc(Cl)c1: 8% (inactive)
O=C1C=C(Br)C(=O)c2ccccc21: 23% (inactive)
O=S(=O)(NNc1ccccc1)c1ccccc1: -1% (inactive)

INPUT: What value of growth inhibition has been recorded for this entry: NC(CCCCCCCCCCCCC(N)C(=O)c1ccccc1)C(=O)c1ccccc1 (stereo unspecified)
OUTPUT: -12% (inactive)

INPUT: What about O=C(O)/C=C\C(=O)Nc1ccc2c(c1)Cc1cc(Cl)ccc1-2 ?
OUTPUT: -3% (inactive)

INPUT: What about O=Cc1ccccc1C=O ?
OUTPUT: -31% (inactive)

INPUT: What about O=C1c2cccc3cccc(c23)C(=O)N1CCNCCN1C(=O)c2cccc3cccc(c23)C1=O ?
OUTPUT: 0% (inactive)

INPUT: What about CC1(C)C(O)OC(O)C1(C)C (stereo unspecified) ?
OUTPUT: 0% (inactive)
